- measured target: KRAS G12S (Homo sapiens, UniProt P01116+P62937, G12S)
- Sequence (P01116 1-169 isoform P01116-2 G12S limits assumed): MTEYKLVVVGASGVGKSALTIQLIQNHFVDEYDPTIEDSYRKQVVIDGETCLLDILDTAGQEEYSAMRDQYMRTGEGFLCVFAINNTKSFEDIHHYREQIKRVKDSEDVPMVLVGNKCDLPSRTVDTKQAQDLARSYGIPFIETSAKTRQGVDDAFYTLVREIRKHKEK
- Sequence (P62937 whole entry): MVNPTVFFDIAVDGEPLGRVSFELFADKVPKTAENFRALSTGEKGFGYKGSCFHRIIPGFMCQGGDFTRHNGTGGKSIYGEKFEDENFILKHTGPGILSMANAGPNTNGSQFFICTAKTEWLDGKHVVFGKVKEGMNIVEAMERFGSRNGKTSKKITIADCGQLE
- assay method text: Ras-Raf disruption / FRET / MOA assay (BRAF RBD)
- Assay type: biochemical
- recorded conditions: Ras-Raf disruption, with Cyclophilin A; read-out: KRAS G12S FRET data IC50
The following molecules are shown together with reported IC50 values.

# molecule, measured target, result
rows = [
    ("CCn1c(-c2cccnc2[C@H](C)OC)c2c3cc(ccc31)-c1cc(O)cc(c1)C[C@H](NC(=O)[C@H](C(C)C)N(C)C(=O)C1CC3(C1)CN(C(=O)[C@H]1CN1)C3)C(=O)N1CCC[C@H](N1)C(=O)OCC(C)(C)C2 [Example 181]", "KRAS G12S (Homo sapiens, UniProt P01116+P62937, G12S)", "100 to 1000 nM"),
    ("CCn1c(-c2cccnc2[C@H](C)OC)c2c3cc(ccc31)-c1cc(O)cc(c1)C[C@H](NC(=O)[C@H](C(C)C)N(C)C(=O)[C@H]1CCCCN(C(=O)[C@H]3CN3)C1)C(=O)N1CCC[C@H](N1)C(=O)OCC(C)(C)C2 (atropisomer, axis not shown) [Example 247]", "KRAS G12S (Homo sapiens, UniProt P01116+P62937, G12S)", "100 to 1000 nM"),
    ("CCn1c(-c2cccnc2[C@H](C)OC)c2c3cc(ccc31)-c1cc(O)cc(c1)C[C@H](NC(=O)[C@H](C(C)C)N(C)C(=O)N1CCCN(C(=O)[C@H]3CN3)CC1)C(=O)N1CCC[C@H](N1)C(=O)OCC(C)(C)C2 (atropisomer, axis not shown) [Example 190]", "KRAS G12S (Homo sapiens, UniProt P01116+P62937, G12S)", "10 to 100 nM"),
]

Now consider a different molecule.
Could you tell me which IC50 is on file for CCn1c(-c2cnccc2COC)c2c3cc(ccc31)-c1cccc(c1)C[C@H](NC(=O)[C@H](C(C)C)N(C)C(=O)CCN=C=Nc1ccccc1OC)C(=O)N1CCC[C@H](N1)C(=O)OCC(C)(C)C2 [20 A and B] ?
> 10000 nM

###

- measured target: NRAS G12C (Homo sapiens, UniProt P01111+P62937, G12C)
- Sequence (P01111 whole entry G12C): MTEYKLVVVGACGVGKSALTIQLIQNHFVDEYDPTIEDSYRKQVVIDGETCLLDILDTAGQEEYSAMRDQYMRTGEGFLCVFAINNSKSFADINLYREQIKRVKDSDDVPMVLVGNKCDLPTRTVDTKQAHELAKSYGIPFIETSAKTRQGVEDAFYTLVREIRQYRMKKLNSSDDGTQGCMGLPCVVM
- Sequence (P62937 whole entry): as the sequence (P62937 whole entry) above
- assay method text: Disruption of BRAF RBD interaction with Ras (FRET / MOA assay, with Cyclophilin A)
- Assay type: biochemical
- recorded conditions: NRAS G12C; read-out: NRAS G12C FRET data IC50
pIC50: −log10 of the molar value.
The following compounds are shown together with reported pIC50 values.

# compound, measured target, pIC50
data = [
    ("C=CS(=O)(=O)N1CC[C@H](C(=O)N(C)[C@H](C(=O)N[C@H]2Cc3nc(cs3)-c3ccc4c(c3)c(c(-c3cncnc3)n4CC)CC(C)(C)COC(=O)[C@@H]3CCCN(N3)C2=O)C(C)C)C1 [Example A170]", "NRAS G12C (Homo sapiens, UniProt P01111+P62937, G12C)", "5.00 to 6.00"),
    ("C=CC(=O)N(C)C1CCN(C(=O)N(C)[C@H](C(=O)N[C@H]2Cc3nc(cs3)-c3ccc4c(c3)c(c(-c3cccnc3[C@H](C)OC)n4CC)CC(C)(C)COC(=O)[C@@H]3CCCN(N3)C2=O)C(C)C)C1 (stereo partly shown) [Example A384]", "NRAS G12C (Homo sapiens, UniProt P01111+P62937, G12C)", "7.00 to 8.00"),
    ("C=CC(=O)N1CC[C@H](C(=O)N(C)[C@H](C(=O)N[C@H]2Cc3cccc(c3)-c3ccc4c(c3)c(c(-c3cccnc3[C@H](C)OC)n4CC)CC(C)(C)COC(=O)C3CCCN(N3)C2=O)[C@H](C)C(F)(F)F)C1 (stereo partly shown) [Example A641]", "NRAS G12C (Homo sapiens, UniProt P01111+P62937, G12C)", "6.00 to 7.00"),
]

Now consider a different compound.
Could you tell me which pIC50 is on file for C=CC(=O)N1CC[C@H](C(=O)N(C)[C@H](C(=O)N[C@H]2Cc3cc(O)cc(c3)-c3ccc4c(c3)c(c(-c3cnccc3[C@H](C)OC)n4CC)CC(C)(C)COC(=O)[C@@H]3CCCN(N3)C2=O)C(C)C)C1 [Example A076] ?
> 8.00

###

- measured target: KRAS WT (Homo sapiens, UniProt P01116+P62937)
- Sequence (P01116 1-169 isoform P01116-2 limits assumed): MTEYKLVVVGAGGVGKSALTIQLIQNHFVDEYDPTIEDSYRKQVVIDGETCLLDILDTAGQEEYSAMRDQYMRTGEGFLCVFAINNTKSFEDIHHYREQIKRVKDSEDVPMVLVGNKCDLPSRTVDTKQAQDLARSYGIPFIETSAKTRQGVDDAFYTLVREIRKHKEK
- Sequence (P62937 whole entry): as the sequence (P62937 whole entry) above
- assay method text: Disruption of BRAF RBD interaction with Ras (FRET / MOA assay, with Cyclophilin A)
- Type: biochemical
- recorded conditions: KRAS WT; read-out: KRAS WT FRET data IC50
outcome measure: IC50

// known answers, use as guide
# compound, IC50
rows = [
    ("CCn1c(-c2cccnc2[C@H](C)OC)c2c3cc(ccc31)-c1cc(O)cc(c1)C[C@H](NC(=O)[C@H](C(C)C)N(C)C(=O)C1CC3CC1CN3)C(=O)N1CCC[C@H](N1)C(=O)OCC(C)(C)C2 (stereo partly shown) [Example A133]", "100 to 1000 nM"),
    ("C=CC(=O)N1CCCN(C(=O)N(C)[C@H](C(=O)N[C@H]2Cc3cc(O)cc(c3)-c3ccc4c(c3)c(c(-c3ccccc3CCOC)n4CC)CC(C)(C)COC(=O)[C@@H]3CCCN(N3)C2=O)C(C)C)CC1 [Example A013]", "1000 to 10000 nM"),
    ("CCn1c(-c2cc(N3CCN(C)CC3)cnc2[C@H](C)OC)c2c3cc(ccc31)-c1csc(n1)C[C@H](NC(=O)[C@H](C1CCCC1)N(C)C(=O)N1CCC1)C(=O)N1CCC[C@H](N1)C(=O)OCC(C)(C)C2 (atropisomer, axis not shown) [Example A529]", "10 to 100 nM"),
]

What reported IC50 corresponds to CCn1c(-c2cccnc2[C@H](C)OC)c2c3cc(ccc31)-c1csc(n1)C[C@H](NC(=O)[C@H](C(C)C)N(C)C(=O)N1CC([C@@H](C)NC)C1)C(=O)N1CCC[C@H](N1)C(=O)OCC(C)(C)C2 (atropisomer, axis not shown) [Example A488] on KRAS WT (Homo sapiens, UniProt P01116+P62937)?
100 to 1000 nM

###

- measured target: NRAS Q61R (Homo sapiens, UniProt P01111+P62937, Q61R)
- Sequence (P01111 whole entry Q61R): as the sequence (P01111 whole entry G12C) above, with C12G, Q61R counted along it
- Sequence (P62937 whole entry): as the sequence (P62937 whole entry) above
- assay method text: Disruption of BRAF RBD interaction with Ras (FRET / MOA assay, with Cyclophilin A)
- Assay type: biochemical
- recorded conditions: NRAS Q61R; read-out: NRAS Q61R FRET data IC50
outcome measure: IC50

// known answers, use as guide
# molecule, measured target, outcome measure, result
data = [
    ("CCn1c(-c2cccnc2[C@H](C)OC)c2c3cc(ccc31)-c1csc(n1)C[C@H](NC(=O)[C@H](C(C)C)N(C)C(=O)N1CC([C@@H](C)CO)C1)C(=O)N1CCC[C@H](N1)C(=O)OCC(C)(C)C2 (single isomer, unassigned) [Example A487]", "NRAS Q61R (Homo sapiens, UniProt P01111+P62937, Q61R)", "IC50", "10 to 100 nM"),
    ("CCn1c(-c2cccnc2[C@H](C)OC)c2c3cc(ccc31)-c1csc(n1)C[C@H](NC(=O)[C@H](C(C)C)N(C)C(=O)N1CC[C@@H](N(C)C)C1)C(=O)N1CCC[C@H](N1)C(=O)OCC(C)(C)C2 (atropisomer, axis not shown) [Example A566]", "NRAS Q61R (Homo sapiens, UniProt P01111+P62937, Q61R)", "IC50", "100 to 1000 nM"),
    ("C=CC(=O)N1CC[C@H](C(=O)N(C)[C@H](C(=O)N[C@H]2Cc3nsc(n3)-c3ccc4c(c3)c(c(-c3cccnc3[C@H](C)OC)n4CC)CC(C)(C)COC(=O)[C@@H]3CCCN(N3)C2=O)C(C)C)C1 (atropisomer, axis not shown) [Example A694]", "NRAS Q61R (Homo sapiens, UniProt P01111+P62937, Q61R)", "IC50", "1000 to 10000 nM"),
]

Could you tell me which IC50 is on file for CCn1c(-c2cccnc2[C@H](C)OC)c2c3cc(ccc31)-c1cc(O)cc(c1)C[C@H](NC(=O)[C@H](C1CCCC1)N(C)C(=O)N1CCS(=O)(=NC)CC1)C(=O)N1CCC[C@H](N1)C(=O)OCC(C)(C)C2 [Example A426] ?
100 to 1000 nM

###

- measured target: NRAS Q61R (Homo sapiens, UniProt P01111+P62937, Q61R)
- assay method text: Disruption of BRAF RBD interaction with Ras (FRET / MOA assay, with Cyclophilin A)
- Format: biochemical
- recorded conditions: NRAS Q61R; read-out: NRAS Q61R FRET data IC50
The following molecules are shown together with reported IC50 values.

# molecule, measured target, result
measured = [
    ("CCn1c(-c2cccnc2[C@H](C)OC)c2c3cc(ccc31)-c1csc(n1)C[C@H](NC(=O)[C@H](C(C)C)N(C)C(=O)N1CCN(C(=O)CN(C)C)CC1)C(=O)N1CCC[C@H](N1)C(=O)OCC(C)(C)C2 (atropisomer, axis not shown) [Example A290]", "NRAS Q61R (Homo sapiens, UniProt P01111+P62937, Q61R)", "0.1 to 1 µM"),
    ("CCn1c(-c2cccnc2[C@H](C)OC)c2c3cc(ccc31)-c1csc(n1)C[C@H](NC(=O)[C@H](C(C)C)N(C)C(=O)N1CC(C3CN(C)C3)C1)C(=O)N1CCC[C@H](N1)C(=O)OCC(C)(C)C2 (atropisomer, axis not shown) [Example A608]", "NRAS Q61R (Homo sapiens, UniProt P01111+P62937, Q61R)", "0.1 to 1 µM"),
    ("C=CC(=O)N1CC[C@H](C(=O)N(C)[C@H](C(=O)N[C@H]2C[C@H]3CN(CCO3)c3ccc4c(c3)c(c(-c3cccnc3[C@H](C)OC)n4CC)CC(C)(C)COC(=O)[C@@H]3CCCN(N3)C2=O)C(C)C)C1 (racemic) [Example A507]", "NRAS Q61R (Homo sapiens, UniProt P01111+P62937, Q61R)", "> 10 µM"),
    ("CCn1c(-c2cc(N3CCN(C)CC3)cnc2[C@H](C)OC)c2c3cc(ccc31)-c1csc(n1)C[C@H](NC(=O)[C@H](C1CCCC1)N(C)C(=O)N(C)C)C(=O)N1CCC[C@H](N1)C(=O)OCC(C)(C)C2 (atropisomer, axis not shown) [Example A526]", "NRAS Q61R (Homo sapiens, UniProt P01111+P62937, Q61R)", "0.01 to 0.1 µM"),
    ("CO[C@@H](COC1CN(C(=O)C#CC(C)(C)N(C)C)C1)C(=O)N[C@H]1Cc2cccc(c2)-c2ccc3c(c2)c(c(-c2cccnc2[C@H](C)OC)n3CC(F)(F)F)CC(C)(C)COC(=O)[C@@H]2CCCN(N2)C1=O [Example A556]", "NRAS Q61R (Homo sapiens, UniProt P01111+P62937, Q61R)", "> 10 µM"),
    ("CCn1c(-c2cccnc2[C@H](C)OC)c2c3cc(ccc31)-c1csc(n1)C[C@H](NC(=O)[C@H](C(C)C)N(C)C(=O)N1CCN3CCOC[C@H]3C1)C(=O)N1CCC[C@H](N1)C(=O)OCC(C)(C)C2 [Example A548]", "NRAS Q61R (Homo sapiens, UniProt P01111+P62937, Q61R)", "0.1 to 1 µM"),
]

Could you tell me which IC50 is on file for CCn1c(-c2cccnc2[C@H](C)OC)c2c3cc(ccc31)-c1csc(n1)C[C@H](NC(=O)[C@H](C(C)C)N(C)C(=O)O[C@H]1CCOC1)C(=O)N1CCC[C@H](N1)C(=O)OCC(C)(C)C2 [Example A210] ?
0.1 to 1 µM

Could you tell me which IC50 is on file for CCn1c(-c2cccnc2[C@H](C)OC)c2c3cc(ccc31)-c1csc(n1)C[C@H](NC(=O)[C@H](C(C)C)N(C)C(=O)N1CCOC[C@@H]1c1ccccc1)C(=O)N1CCC[C@H](N1)C(=O)OCC(C)(C)C2 [Example A604] ?
1 to 10 µM

Could you tell me which IC50 is on file for C=CC(=O)N1CC[C@H](C(=O)N(C)[C@H](C(=O)N[C@H]2Cc3cc(O)cc(c3)-c3ccc4c(c3)c(c(-c3ccncc3)n4C(C)(C)C#N)CC(C)(C)COC(=O)[C@@H]3CCCN(N3)C2=O)C(C)C)C1 [Example A086] ?
1 to 10 µM

Could you tell me which IC50 is on file for C=CC(=O)N1CC2(CCN2C(=O)N(C)[C@H](C(=O)N[C@H]2Cc3cccc(n3)-c3ccc4c(c3)c(c(-c3cccnc3[C@H](C)OC)n4CC)CC(C)(C)COC(=O)C3CCCN(N3)C2=O)C(C)C)C1 (stereo partly shown) [Example A636] ?
0.1 to 1 µM
